tested on: ATP; assay: switch fluorescence ratio, 500 uM ATP over buffer (Cy3 cluster intensity, sum of 5 cycles each) (fold (ratio)); higher = stronger signal-on switching upon ATP binding; sequences stand for … in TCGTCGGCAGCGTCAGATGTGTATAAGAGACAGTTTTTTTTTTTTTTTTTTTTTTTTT…TC; conditions: aptamer strand: ATP DNA aptamer (quencher-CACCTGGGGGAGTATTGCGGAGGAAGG + anchor), 100 nM annealed; ATP concentration: 500 uM;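 further: ATP exposure 15 min at 22 °C before imaging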
So basically: switch fluorescence ratio at 1 or higher? That is YES. Lower than 1? That is NO.

Can AAACGCGGAC be said to have switch fluorescence ratio at or above 1?
YES

Can GAGATAGGTT be said to have switch fluorescence ratio at or above 1?
YES

Can AAGTATAGTT be said to have switch fluorescence ratio at or above 1?
YES

Can AACTTGGTTT be said to have switch fluorescence ratio at or above 1?
NO

Can CGTATGCAAG be said to have switch fluorescence ratio at or above 1?
NO

Can TTTACTTCGC be said to have switch fluorescence ratio at or above 1?
YES

Can GAAGTTGTTG be said to have switch fluorescence ratio at or above 1?
NO

Can ATGAGCGCAC be said to have switch fluorescence ratio at or above 1?
YES

Can TTTTATAATT be said to have switch fluorescence ratio at or above 1?
YES

Can GGGCAGGTTC be said to have switch fluorescence ratio at or above 1?
YES

Can TGGGATCCGC be said to have switch fluorescence ratio at or above 1?
YES

Can GGCGCAGCTG be said to have switch fluorescence ratio at or above 1?
NO

Can TTGTGGGAAT be said to have switch fluorescence ratio at or above 1?
YES

Can ACGATGATCT be said to have switch fluorescence ratio at or above 1?
YES

Can GAGACGGAAT be said to have switch fluorescence ratio at or above 1?
YES

Can CGGGGCATAT be said to have switch fluorescence ratio at or above 1?
YES

Can CAGGGGGGGT be said to have switch fluorescence ratio at or above 1?
YES

Can GGGGGGGCTG be said to have switch fluorescence ratio at or above 1?
YES

Can GGATGGTTGC be said to have switch fluorescence ratio at or above 1?
YES

Can TTCCGACCGG be said to have switch fluorescence ratio at or above 1?
YES

Can TTAAACCCAC be said to have switch fluorescence ratio at or above 1?
YES

Can CCCATTTTGC be said to have switch fluorescence ratio at or above 1?
YES

Can TTTTTGTTAC be said to have switch fluorescence ratio at or above 1?
YES

Can ACGTTGGGGC be said to have switch fluorescence ratio at or above 1?
YES

Can TTTACCCTCC be said to have switch fluorescence ratio at or above 1?
YES

Can TTATAATAG be said to have switch fluorescence ratio at or above 1?
YES
